Reported activity change, negative = inhibition values follow for various molecules
biological target: 15-hydroxyprostaglandin dehydrogenase [NAD(+)] (Homo sapiens); assay: qHTS Assay for Inhibitors of HPGD (15-Hydroxyprostaglandin Dehydrogenase); conditions: purified HPGD, NADH fluorescence kinetic, PGE2 substrate; stronger effect = lower value; note: % is set by controls: 0 for no effect and ±100 for the full control effect
Out of some 150,000 compounds screened, about 6,500 (4.3%) were called active. Another 12% or so got no clear call; they are omitted. Many of the other results were omitted from the sample, so actives are more common in it than they were.

>>> df
                                   molecule                         recorded_metric             result
0        O=C(NNC(=S)Nc1ccc(Br)cc1Cl)c1ccco1  activity change, negative = inhibition  -15.2% (inactive)
1               CCCC(=O)n1nc(-c2ccccc2)nc1N  activity change, negative = inhibition  -7.53% (inactive)
2              Cc1cc(NS(=O)(=O)c2ccccc2)no1  activity change, negative = inhibition  -11.9% (inactive)
3           O=C(Nc1cccc2ncccc12)C(Cl)(Cl)Cl  activity change, negative = inhibition  -18.4% (inactive)
4                 CNC(=S)N1CCN(c2ccccn2)CC1  activity change, negative = inhibition    -14% (inactive)
5  COc1ccc(CCN(C(=O)COc2ccccc2)c2nc(-c3ccccc3)cs2)cc1OC  activity change, negative = inhibition  -5.33% (inactive)
6  CCOC(=O)CN(Cc1ccc(OC)c(OC)c1)S(=O)(=O)c1ccc(OC)cc1  activity change, negative = inhibition   1.91% (inactive)
7  Cc1c(NS(=O)(=O)c2ccc(NC3CCCC3)c([N+](=O)[O-])c2)c(=O)n(-c2ccccc2)n1C  activity change, negative = inhibition  -7.49% (inactive)

Ask: Identify measured activity change, negative = inhibition associated with O=C1c2ccccc2C(O)N1Cc1ccccc1 (centres undefined)
Reply: -28.7% (inactive)

Ask: Supply reported activity change, negative = inhibition belonging to this molecule: Cc1ccc(Cl)cc1N1CCN(C(=O)c2cccc3c(=O)c(C)c(-c4ccccc4)oc23)CC1
Reply: 0.844% (inactive)

Ask: Give activity change, negative = inhibition for NC1CCN(O)C1=O (centres undefined)
Reply: -4.5% (inactive)

Ask: Retrieve activity change, negative = inhibition measured for Cc1ccc(C(=O)C(=S)N2CCOCC2)cc1 and print it.
Reply: -3.51% (inactive)
